assayed_target: T1, human PXR-GST (Invitrogen) (human, UniProt O75469 111-434, limits assumed)
T1 construct: Captured on an anti-GST antibody chip; the whole natural protein is named; also called GST-PXR; GST-tagged PXR; not shown: GST tag
T1 sequence (looked up): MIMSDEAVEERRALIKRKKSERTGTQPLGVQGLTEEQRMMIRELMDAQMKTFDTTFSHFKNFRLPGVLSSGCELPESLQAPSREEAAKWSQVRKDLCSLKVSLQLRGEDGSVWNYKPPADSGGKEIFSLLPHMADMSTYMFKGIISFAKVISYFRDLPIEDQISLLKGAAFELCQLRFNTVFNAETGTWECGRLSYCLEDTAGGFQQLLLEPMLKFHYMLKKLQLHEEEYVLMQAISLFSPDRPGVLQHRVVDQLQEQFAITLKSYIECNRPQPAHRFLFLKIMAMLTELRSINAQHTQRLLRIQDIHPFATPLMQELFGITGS
run_description: SPR, Biacore T100; human PXR-GST captured on anti-GST antibody chip;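 note: binding rate constants and Kd derived from kinetic cycles using the Biacore T100 analysis software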
The entries below come with measured pKd values attached.
Hey, just a heads up that pKd is the negative log base 10 of the concentration in molar.

# binder, pKd
data = [
    ("Adnectin-1 (designed binder, Isolated from an NP1 library; purified by Ni-agarose) MASTSGSTHYYKGTADLEVVAATPTSLLISWPPPYYVEGVTVFRITYGETGGNSPVQEFTVPYWTETATISGLKPGVDYTITVYAEMYPGSPWAGQVMDIQPISINYRTEGSGSHHHHHH", 7.94),
    ("Adnectin-8 (designed binder) MGVSDVPRDLEVVAATPTSLLISWSQPGRYVKYYRITYGETGGNSPVQEFTVPNDTYTATISGLKPGVDYTITVYAVYGKYGPYYGYDPISINYRTEIDKPSQHHHHHH", 8.36),
    ("Adnectin-3 (designed binder) MASTSGVSDVPRDLEVVAATPTSLLISWDAPAVPVSKYVIYYWPGALISSMQAFKVPGSKSTATISGLKPGVLYSIVVDALTGDGQGSYVWDPITITYRTEGSGSHHHHHH", 8.60),
    ("Adnectin-2 (designed binder) MASTSGVSDVPRDLEVVAATPTSLLISWDAPAVTVNNYRITYQPLLQGSSIQHFDVPGSKSTATISGLKPGVGYQITVYASTYTHSKAYYSLPISIYYRTEGSGSHHHHHH", 7.01),
    ("Adnectin-4 (designed binder) MASTSGVSDVPRDLEVVAATPTSLLISWDAPAVTVHSYYITYQELQHHSVPQGFQVPGSKSTATISGLKPGVAYQIAVYAFTGPGLPPSDAPPIVIYYRTEGSGSHHHHHH", 8.11),
]

In the following, a different binder is considered.
Per the record, Adnectin-7 (designed binder) MGVSDVPRDLEVVTATPTSLLISWDGPKYYVKYYRITYGETGGNSPVQEFTVPRTDHTATISGLKPGVDYTITVYAVKGQYGPYYGSRPISINYRTEIDKPSQHHHHHH has pKd of 9.51
